Listing of entries alongside the reported OD450.
Target: T1, human MSLN-FL-his protein (human, UniProt Q13421 296-580)
T1 construct: also called human MSLN full-length protein; hMSLN-FL-his; not shown: His tag
T1 sequence (Q13421 other isoform, or with tags, fused parts or gaps): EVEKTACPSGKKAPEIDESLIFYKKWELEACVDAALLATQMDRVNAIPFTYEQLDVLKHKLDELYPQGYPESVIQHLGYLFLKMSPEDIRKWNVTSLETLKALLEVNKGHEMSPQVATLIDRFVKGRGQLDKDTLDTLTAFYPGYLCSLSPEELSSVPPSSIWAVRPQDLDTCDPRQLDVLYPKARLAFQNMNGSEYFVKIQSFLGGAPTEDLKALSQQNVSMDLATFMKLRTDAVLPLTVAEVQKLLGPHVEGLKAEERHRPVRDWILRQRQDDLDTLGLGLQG
Assay: ELISA, coated antigen; no antibody (blank, column 'none')
The response must be a number in OD450 with no trailing unit.

Worked cases, answers included:
[
  {
    "binder": "S009-F4-94.15 (antibody, human IgG1, kappa, V domains shown, Human-murine chimeric antibody, human IgG1/kappa constant regions) VH: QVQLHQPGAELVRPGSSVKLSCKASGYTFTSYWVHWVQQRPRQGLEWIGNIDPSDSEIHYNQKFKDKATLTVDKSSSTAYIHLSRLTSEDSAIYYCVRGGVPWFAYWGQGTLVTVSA VL: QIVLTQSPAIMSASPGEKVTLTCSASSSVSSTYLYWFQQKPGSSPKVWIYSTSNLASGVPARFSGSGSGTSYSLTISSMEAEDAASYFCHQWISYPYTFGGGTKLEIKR",
    "OD450 (OD450)": 0.06
  },
  {
    "binder": "S009-F6-62.5 (antibody, human IgG1, kappa, V domains shown, Human-murine chimeric antibody, human IgG1/kappa constant regions) VH: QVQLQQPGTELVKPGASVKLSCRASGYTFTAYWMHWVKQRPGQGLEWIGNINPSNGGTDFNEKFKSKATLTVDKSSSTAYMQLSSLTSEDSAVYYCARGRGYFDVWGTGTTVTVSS VL: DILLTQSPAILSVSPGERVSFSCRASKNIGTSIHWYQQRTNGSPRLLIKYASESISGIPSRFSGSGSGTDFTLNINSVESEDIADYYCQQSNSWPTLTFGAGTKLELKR",
    "OD450 (OD450)": 0.05
  },
  {
    "binder": "S009-F4-127.10 (antibody, human IgG1, kappa, V domains shown, Human-murine chimeric antibody, human IgG1/kappa constant regions) VH: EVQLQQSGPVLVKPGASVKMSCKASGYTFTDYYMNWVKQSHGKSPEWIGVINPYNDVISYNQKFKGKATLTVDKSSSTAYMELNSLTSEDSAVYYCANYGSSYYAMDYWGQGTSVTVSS VL: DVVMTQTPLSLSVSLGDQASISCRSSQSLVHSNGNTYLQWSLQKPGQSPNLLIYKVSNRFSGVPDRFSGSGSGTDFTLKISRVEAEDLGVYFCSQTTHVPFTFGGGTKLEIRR",
    "OD450 (OD450)": 0.06
  }
]

[Q] What measured OD450 goes with S009-F6-76.1 (antibody, human IgG1, kappa, V domains shown, Human-murine chimeric antibody, human IgG1/kappa constant regions) VH: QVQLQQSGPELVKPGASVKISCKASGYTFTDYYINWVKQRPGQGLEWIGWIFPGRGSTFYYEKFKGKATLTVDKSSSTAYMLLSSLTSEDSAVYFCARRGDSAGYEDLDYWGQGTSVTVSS VL: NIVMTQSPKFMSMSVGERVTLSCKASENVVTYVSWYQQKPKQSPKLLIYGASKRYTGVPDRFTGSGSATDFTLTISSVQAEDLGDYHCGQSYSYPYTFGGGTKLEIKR ?
[A] 0.05

[Q] Next binder: S009-F5-9.16 (antibody, human IgG1, kappa, V domains shown, Human-murine chimeric antibody, human IgG1/kappa constant regions) VH: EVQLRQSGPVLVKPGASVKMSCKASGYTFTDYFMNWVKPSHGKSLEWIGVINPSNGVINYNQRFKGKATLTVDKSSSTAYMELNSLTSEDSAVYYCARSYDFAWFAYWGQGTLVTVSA VL: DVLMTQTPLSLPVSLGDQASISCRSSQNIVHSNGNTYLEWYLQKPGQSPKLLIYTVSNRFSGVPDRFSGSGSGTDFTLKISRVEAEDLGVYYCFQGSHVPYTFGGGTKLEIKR
[A] 0.05
